- test target: bradykinin 1 receptor (B1R) of the rat (Rattus norvegicus, UniProt P97583)
- Construct: expressed in transfected cells
- Sequence (P97583 1-337): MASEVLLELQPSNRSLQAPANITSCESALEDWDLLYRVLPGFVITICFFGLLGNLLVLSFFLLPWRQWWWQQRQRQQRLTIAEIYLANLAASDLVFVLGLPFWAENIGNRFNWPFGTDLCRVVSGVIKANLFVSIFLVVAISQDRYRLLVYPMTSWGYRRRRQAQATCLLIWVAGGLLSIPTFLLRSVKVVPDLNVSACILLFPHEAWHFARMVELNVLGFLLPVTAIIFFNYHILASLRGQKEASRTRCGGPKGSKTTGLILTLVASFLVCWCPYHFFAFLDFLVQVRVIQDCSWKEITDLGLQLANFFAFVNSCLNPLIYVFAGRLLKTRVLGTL
- run description: FLIPR Ca2+ assay, B1R antagonism, rat
- Assay type: cell-based
- measurement setup: CHO-K1, 10 μM test substance; CHO K1 cells with rat B1R gene (rB1R cells); Des-Arg9-bradykinin at EC80; % inhibition compared with the maximum achievable inhibition; read-out: B1R antagonism, rat [10 μM] % inhibition
recorded metric: inhibition at 10 µM (%)
Express the result in % but write the number alone.

Some compounds with recorded inhibition at 10 µM:
compound	inhibition at 10 µM, %
COc1cc(C)c(S(=O)(=O)N(C)CCOCC(=O)N2CCC(OCCN3CCCC3)(c3ccncc3)CC2)c(C)c1C	102
COc1cc(C)c(S(=O)(=O)N(C)CCOCC(=O)N2CCC(OCCN3CCCC3)(c3cccc(F)c3)CC2)c(C)c1	97
Cc1cccc(Cl)c1S(=O)(=O)N(CCOCC(=O)N1CCC(OCCN2CCCC2)(c2ccc(C(F)(F)F)cc2)CC1)C1CC1	95
O=C(CCCC1CCCCN1S(=O)(=O)c1ccccc1C(F)(F)F)N1CCC(OCCN2CCCC2)(c2cccc(F)c2)CC1 (stereo not drawn)	102
O=C(CC1COc2ccccc2N1S(=O)(=O)c1ccc(Cl)cc1Cl)N1CCC(OCCN2CCCC2)(c2cccc(F)c2)CC1 (stereo not drawn)	41
O=C(CC1CCCCN1S(=O)(=O)c1cccc(C(F)(F)F)c1)N1CCC(OCCCN2CCCC2)(c2cccnc2)CC1 (stereo not drawn)	48
COc1cc(C)c(S(=O)(=O)N2CCCC[C@H]2COCC(=O)N2CCC(OCCN3CCCC3)(c3ccncc3)CC2)c(C)c1	103
COc1cc(C)c(S(=O)(=O)N(CCOCC(=O)N2CCC(OCCN3CCCC3)(c3ccc(C(F)(F)F)cc3)CC2)C2CC2)c(C)c1	98
COc1cc(C)c(S(=O)(=O)N(C)CCOCC(=O)N2CCC(OCCCN3CCCCC3)(c3cccnc3)CC2)c(C)c1	103
COc1cc(C)c(S(=O)(=O)N2c3ccccc3CCC2COCC(=O)N2CCC(OCCN3CCCC3)(c3ccncc3)CC2)c(C)c1 (stereo not drawn)	103

API: value(readout=inhibition at 10 µM, system=bradykinin 1 receptor (B1R) of the rat (Rattus norvegicus, UniProt P97583)) for record COc1cc(C)c(S(=O)(=O)N2CCCCC2CCCC(=O)N2CCC(OCCN3CCCC3)(c3ccc(C(F)(F)F)cc3)CC2)c(C)c1 (stereo not drawn)
100

Lookup COc1cc(C)c(S(=O)(=O)N(C)CCOCC(=O)N2CCC(OCCN3CCCC3)(c3cccnc3)CC2)c(C)c1
100

// repeat for O=C(CCCC1CCCCN1S(=O)(=O)c1ccc2ccccc2c1)N1CCC(OCCN2CCCC2)(c2cccc(F)c2)CC1 (stereo not drawn) and report
79

Follow-up item: O=C(CC1CCCCN1S(=O)(=O)c1cccc(C(F)(F)F)c1)N1CCC(OCCN2CCCC2)(c2ccc(F)cc2)CC1 (stereo not drawn)
62

---

- test target: human bradykinin 1 receptor (B1R) (Homo sapiens)
- Construct: expressed in transfected cells
- run description: FLIPR Ca2+ assay, B1R antagonism, human
- Assay type: cell-based
- measurement setup: 10 μM test substance; CHO K1 cells with human B1R gene (hB1R cells); Lys-Des-Arg9-bradykinin at EC80; % inhibition compared with the maximum achievable inhibition; read-out: B1R antagonism, human [10 μM] % inhibition
recorded metric: inhibition at 10 µM (%)
Quick note: give the figure in %, leave out the unit.

Some entries whose results are on file:
molecule	recorded metric	reported result
COc1cc(C)c(S(=O)(=O)N(CCOCC(=O)N2CCC(OCCN3CCCC3)(c3cccc(F)c3)CC2)c2ccccc2)c(C)c1 [Example 99]	inhibition at 10 µM	99
COc1cc(C)c(S(=O)(=O)N2CCCC[C@H]2COCC(=O)N2CCC(COCCN3CCCC3)(c3cccnc3)CC2)c(C)c1 [Example 49]	inhibition at 10 µM	97

Please provide the recorded inhibition at 10 µM for COc1cc(C)c(S(=O)(=O)N2c3ccccc3OCC2COCC(=O)N2CCC(OCCN3CCCC3)(c3cccnc3)CC2)c(C)c1 (stereo not shown) [Example 106] , tested on human bradykinin 1 receptor (B1R) (Homo sapiens).
100

Try Cc1cc(S(=O)(=O)N2CCCCC2CCC(=O)N2CCC(OCCN3CCN(C)CC3)(c3cccnc3)CC2)c(C)cc1Cl (stereo not shown) [Example 31] next.
85

---

- test target: human bradykinin 1 receptor (B1R) (Homo sapiens, UniProt P46663)
- Construct: expressed in transfected cells
- Sequence (P46663 1-353): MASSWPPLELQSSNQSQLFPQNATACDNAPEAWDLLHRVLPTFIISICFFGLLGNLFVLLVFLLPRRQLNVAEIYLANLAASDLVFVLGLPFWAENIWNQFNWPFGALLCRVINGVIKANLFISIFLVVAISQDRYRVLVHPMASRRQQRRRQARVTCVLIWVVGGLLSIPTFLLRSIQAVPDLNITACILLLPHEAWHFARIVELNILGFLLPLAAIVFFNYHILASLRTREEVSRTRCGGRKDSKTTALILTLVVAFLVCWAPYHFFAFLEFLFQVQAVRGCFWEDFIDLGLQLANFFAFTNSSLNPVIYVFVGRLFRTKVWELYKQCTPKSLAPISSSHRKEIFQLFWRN
- run description: FLIPR Ca2+ assay, B1R antagonism, human
- Format: cell-based
- measurement setup: 10 μM test substance; CHO K1 cells with human B1R gene (hB1R cells); Lys-Des-Arg9-bradykinin at EC80; % inhibition compared with the maximum achievable inhibition; read-out: B1R antagonism, human [10 μM] % inhibition
The label depends only on inhibition at 10 µM: t if it is at least 90%, f if it is smaller.

Some solved entries appear below for comparison.
molecule	category
O=C(CC1CCCCN1S(=O)(=O)c1cccc(C(F)(F)F)c1)N1CCC(OCCN2CCCC2)(c2cccnc2)CC1 (stereo not drawn)	f
O=C(COCC1CCc2ccccc2N1S(=O)(=O)c1ccc(Cl)c(Cl)c1)N1CCC(OCCCN2CCCCC2)(c2cccnc2)CC1 (stereo not drawn)	t
COc1cc(C)c(S(=O)(=O)N(CCOCC(=O)N2CCC(OCCN3CCCC3)(c3ccncc3)CC2)c2ccccc2)c(C)c1	t
COc1cc(C)c(S(=O)(=O)N2CCCC[C@H]2COCC(=O)N2CCC(OCCn3ccnc3)(c3cccnc3)CC2)c(C)c1	t
COc1cc(C)c(S(=O)(=O)N2CCCC[C@H]2COCC(=O)N2CCC(OCCN3CCCC3)(c3cccc(F)c3)CC2)c(C)c1	t

Please check the record COc1cc(C)c(S(=O)(=O)N2CCCC[C@H]2COCC(=O)N2CCC(OCCN3CCCC3)(c3cccc(C(F)(F)F)c3)CC2)c(C)c1 and state if its inhibition at 10 µM is at or above 90%.
t

Entry to check: COc1cc(C)c(S(=O)(=O)N2CCCC[C@H]2COCC(=O)N2CCC(OCCn3cncn3)(c3cccnc3)CC2)c(C)c1
t

---

- test target: human bradykinin 1 receptor (B1R) (Homo sapiens, UniProt P46663)
- Construct: expressed in transfected cells
- run description: FLIPR Ca2+ assay, B1R antagonism, human
- Type: cell-based
- measurement setup: 10 μM test substance; CHO K1 cells with human B1R gene (hB1R cells); Lys-Des-Arg9-bradykinin at EC80; % inhibition compared with the maximum achievable inhibition; read-out: B1R antagonism, human [10 μM] % inhibition
compounds and their reported inhibition at 10 µM
Give the number; % is assumed, so skip it.

Please give the measured inhibition at 10 µM for this compound: COc1cc(C)c(S(=O)(=O)N2CCCC[C@H]2COCC(=O)N2CCCC(OCCN3CCCC3)(c3cccnc3)CC2)c(C)c1 (stereo partly shown) [Example 55]
100

Okay, and COc1cc(C)c(S(=O)(=O)N(CCOCC(=O)N2CCC(OCCN3CCCC3)(c3cccnc3)CC2)C2CC2)c(C)c1 [Example 3] ?
100

---

- test target: bradykinin 1 receptor (B1R) of the rat (Rattus norvegicus)
- Construct: expressed in transfected cells
- run description: FLIPR Ca2+ assay, B1R antagonism, rat
- Format: cell-based
- measurement setup: CHO-K1, 10 μM test substance; CHO K1 cells with rat B1R gene (rB1R cells); Des-Arg9-bradykinin at EC80; % inhibition compared with the maximum achievable inhibition; read-out: B1R antagonism, rat [10 μM] % inhibition
recorded metric: inhibition at 10 µM (%)
Respond with the bare value in %.

Some compounds with known inhibition at 10 µM results, for comparison:
compound	readout units	reported result
COc1cc(C)c(S(=O)(=O)N2CCCC[C@H]2COCC(=O)N2CCC(OCCN3CCC3)(c3cccnc3)CC2)c(C)c1	%	101
COc1cc(C)c(S(=O)(=O)N(CCOCC(=O)N2CCC(OCCN3CCCC3)(c3cccc(F)c3)CC2)c2ccccc2)c(C)c1	%	97
COc1cc(C)c(S(=O)(=O)N2CCCC[C@H]2COCC(=O)N2CCC(OCCN3CCCC3)(c3cccnc3)C2)c(C)c1 (stereo partly drawn)	%	104
O=C(COC[C@@H]1CCCCN1S(=O)(=O)c1ccccc1C(F)(F)F)N1CCC(OCCN2CCCC2)(c2cccnc2)CC1	%	101
O=C(CC(NS(=O)(=O)c1ccc2ccccc2c1)c1ccccc1)N1CCC(OCCN2CCCCC2)(c2cccnc2)CC1 (stereo not drawn)	%	52
COc1cc(C)c(S(=O)(=O)N(C)CCOCC(=O)N2CCC(OCCN3CCCC3)(c3cccnc3)CC2)c(C)c1C	%	103
COc1cc(C)c(S(=O)(=O)N(C)CCOCC(=O)N2CCC(OCCCN3CCN(C)CC3)(c3cccnc3)CC2)c(C)c1	%	100
COc1cc(C)c(S(=O)(=O)N2CCCC[C@H]2COCC(=O)N2CCC(OCCN3CCCC3)(c3cccc(F)c3)CC2)c(C)c1	%	97

# inhibition at 10 µM lookup, item COc1cc(C)c(S(=O)(=O)N2c3ccccc3CCC2COCC(=O)N2CCC(OCCN3CCCC3)(c3cccnc3)CC2)c(C)c1 (stereo not drawn)
102

Entry Cc1cc(S(=O)(=O)N2CCCCC2CCC(=O)N2CCC(OCCCN3CCCCC3)(c3cccnc3)CC2)c(C)cc1Cl (stereo not drawn) please
46

Same thing, different compound: CN(CCCC(=O)N1CCC(OCCN2CCCC2)(c2cccc(F)c2)CC1)S(=O)(=O)c1cccc(C(F)(F)F)c1
49
